# Tested on: P388 leukemia ip, CD2F1 mice, survival T/C
# assay: NCI In Vivo Anticancer Drug Screen. Data for tumor model P388 Leukemia (intraperitoneal) in CD2F1 (CDF1) mice
# details: endpoint: median survival time; dose: 50.0 mg/kg/injection; schedule: Q01DX009 (ip); vehicle: saline with Tween-80
Toxic doses and inconclusive results are not listed. Rule for the calls: active = survival T/C of 150% or more; inactive = T/C below 125% in these data.
// one of active, inactive, no free text

INSERT INTO measurements (compound, class_label) VALUES
  ('NC(=S)/C(N)=N/Nc1ccc(Cl)cc1', 'inactive'),
  ('Cc1ccc(S(=O)(=O)N/N=C/C(C)c2cccnc2)cc1 (stereo unspecified)', 'inactive'),
  ('Nc1nc(N)nc(N2CCCC2)n1', 'inactive'),
  ('C1CCC(N2OC23CCCCC3)CC1 (stereo unspecified)', 'inactive'),
  ('COc1cc(N=Nc2ccc([N+](=O)[O-])cc2)ccc1N(CCCl)CCCl', 'active');

// return assay outcome for `O=C(O)c1ccccc1N=N/C(=N\Nc1ccccc1C(=O)O)c1ccnc2ccccc12`
inactive

// return assay outcome for `O=C(N/N=C/c1ccccc1O)c1ccccc1-n1cccc1`
inactive

// provenance: PubChem BioAssay AID330
